test system: HCT-116; test: cells; conditions: Homo sapiens
Please go through the items and note down their pIC50.
Give bare numbers, as −log10 of the molar value.

Give pIC50 for all molecules that follow.
1. CC(C)CNC(=O)c1ccc(CN2CCN(c3nnc(NC(=O)Cc4ccccc4)s3)CC2)cc1
2. CCN(CC)CCNC(=O)c1ccc(COCCC2CCN(c3nnc(NC(=O)Cc4ccccc4)s3)CC2)cc1
3. CCCCCCN1CCC(CNC(=O)c2ccc(COCCC3CCN(c4nnc(NC(=O)Cc5ccccc5)s4)CC3)cc2)CC1

**Result**
[5.96, 5.92, 6.47]

**Query** State the recorded pIC50 for this entry: C=CCCC(=O)N1CCC(CNC(=O)c2cccc(COCCC3CCN(c4nnc(NC(=O)Cc5ccccc5)s4)CC3)c2)CC1
**Result** 5.39

###

test: in vitro; details: human, liver microsomes
Please go through the items and note down their half-life.

Observe how each entry below is paired with its result.
Item smiles: CN1CCN(c2cccc(NC(=O)c3cccc(CN4CCN(c5nnc(NC(=O)Cc6ccccc6)s5)CC4)c3)c2)CC1
Data value: > 2 h
//
Item smiles: CN1CCN(c2ccc(C(=O)Nc3ccc(CN4CCN(c5nnc(NC(=O)Cc6ccccc6)s5)CC4)cc3)cc2)CC1
Data value: 1.12 h

Now look at this entry.
**Query** State the recorded half-life for this entry: Cc1ccccc1CN1CCC(CNC(=O)c2cccc(COCCC3CCN(c4nnc(NC(=O)Cc5ccccc5)s4)CC3)c2)CC1
**Result** > 2 h

###

Please go through the items and note down their log10 of IC50.
test system: HCT-116; experiment: cells; details: Homo sapiens
Scale: log10; quantity: IC50; unit before log: µM

Item smiles: O=C(Cc1ccccc1)Nc1nnc(N2CCN(Cc3ccc(C(=O)NCCN4CCCCC4)cc3)CC2)s1
log10 of IC50: 0.04
//
Item smiles: CN1CCN(c2ccc(C(=O)Nc3cccc(CN4CCN(c5nnc(NC(=O)Cc6ccccc6)s5)CC4)c3)cc2)CC1
log10 of IC50: 0.18
//
Item smiles: CCCCCCN1CCC(CNC(=O)c2cccc(COCCC3CCN(c4nnc(NC(=O)Cc5ccccc5)s4)CC3)c2)CC1
log10 of IC50: -0.38
//
Item smiles: O=C(Cc1ccccc1)Nc1nnc(N2CCN(Cc3ccc(C(=O)NCCN4CCCC4)cc3)CC2)s1
log10 of IC50: 0.22

Now look at this entry.
**Query** State the recorded log10 of IC50 for this entry: O=C(Cc1ccccc1)Nc1nnc(N2CCC(CCOCc3cccc(C(=O)NCCN4CCCCC4)c3)CC2)s1
**Result** 0.85

###

system: HCT-116; experiment: cells; conditions: Homo sapiens
Observable: IC50 (µM)
Numbers only, in µM.

Observe how each entry below is paired with its result.
Item smiles: O=C(Cc1ccccc1)Nc1nnc(N2CCC(OCc3ccc(C(=O)NCCN4CCCC4)cc3)CC2)s1
Target: HCT-116
Data value: 3.81

Item smiles: CCCCN1CCC(CNC(=O)c2cccc(COCCC3CCN(c4nnc(NC(=O)Cc5ccccc5)s4)CC3)c2)CC1
Target: HCT-116
Data value: 1.08

Item smiles: O=C(Cc1ccccc1)Nc1nnc(N2CCC(CCOCc3cccc(C(=O)N4CCN(c5cccc(F)c5)CC4)c3)CC2)s1
Target: HCT-116
Data value: 8.52

Item smiles: O=C(Cc1ccccc1)Nc1nnc(N2CCC(CCOCc3cccc(C(=O)NCC4CCN(Cc5cc(F)cc(F)c5)CC4)c3)CC2)s1
Target: HCT-116
Data value: 0.69

Item smiles: CN1CCC(CNC(=O)c2cccc(CN3CCN(c4nnc(NC(=O)Cc5ccccc5)s4)CC3)c2)CC1
Target: HCT-116
Data value: 1.56

Item smiles: O=C(Cc1ccccc1)Nc1nnc(N2CCN(Cc3ccc(C(=O)NCCc4ccc(F)cc4)cc3)CC2)s1
Target: HCT-116
Data value: 0.57

Give IC50 for all compounds that follow.
1. O=C(Cc1ccccc1)Nc1nnc(N2CCC(CCOCc3ccc(C(=O)NCC4CCN(Cc5cc(F)cc(F)c5)CC4)cc3)CC2)s1
2. C=CCCC(=O)N1CCC(CNC(=O)c2ccc(COCCC3CCN(c4nnc(NC(=O)Cc5ccccc5)s4)CC3)cc2)CC1
3. CCNCCNC(=O)c1ccc(CN2CCN(c3nnc(NC(=O)Cc4ccccc4)s3)CC2)cc1
4. CCCN1CCC(CNC(=O)c2ccc(COCCC3CCN(c4nnc(NC(=O)Cc5ccccc5)s4)CC3)cc2)CC1
5. CN1CCN(c2cccc(NC(=O)c3ccc(CN4CCN(c5nnc(NC(=O)Cc6ccccc6)s5)CC4)cc3)c2)CC1

**Result**
1. 0.8
2. 2.07
3. 1.28
4. 1.69
5. 0.52
